From: ChEMBL document CHEMBL1145936

Collected pIC50 values appear next to each entry.
test-system: UniProt:P80276
pIC50: −log10 of the molar value.
reported-endpoint: pIC50

| given-smiles | test-system | reading |
| --- | --- | --- |
| O=C(O)c1ccccc1C(=O)NCCc1ccc(Cl)cc1 | UniProt:P80276 | 3.69 |
| O=C(O)CCC(=O)N1CCc2ccccc21 | UniProt:P80276 | 3.99 |
| CCCCCCCCCC(=O)NCCc1ccc(O)cc1 | UniProt:P80276 | 3.96 |
| O=C(O)/C=C/C(=O)NCCc1ccc(O)cc1 | UniProt:P80276 | 4.10 |
| O=C(O)/C=C/C(=O)NCCc1ccc(Cl)cc1 | UniProt:P80276 | 3.95 |
| O=C(O)CCC(=O)NCc1ccccc1 | UniProt:P80276 | 3.85 |
| COc1ccc(CCNC(=O)/C=C/C(=O)O)cc1 | UniProt:P80276 | 3.81 |
